Please respond with reported MIC for every item in the list.
# System: Escherichia coli
# assay_method_text: In vitro Inhibition of growth of Escherichia coli(KC-14)
# Assay type: functional
One number for each entry, in µg/mL.

[
  {
    "molecule": "CCn1cc(C=O)c(=O)c2cc(F)c(N3CCN(C)CC3)cc21",
    "measured_metric": "MIC",
    "reported_measurement": 6.25
  },
  {
    "molecule": "O=Cc1cn(C2CC2)c2cc(N3CCNCC3)c(F)cc2c1=O",
    "measured_metric": "MIC",
    "reported_measurement": 3.13
  },
  {
    "molecule": "CCn1cc(C(=O)O)c(=O)c2cc(F)c(N3CCNCC3)cc21 [NORFLOXACIN]",
    "measured_metric": "MIC",
    "reported_measurement": 0.1
  }
]

Could you please provide reported MIC for CCn1cc(C=O)c(=O)c2cc(F)c(N3CCNCC3)cc21 ? Thanks!
12.5

###

Please go through the items and note down their MIC.
# Test system: Bacillus subtilis
# assay_method_text: In vitro inhibition of growth of Bacillus subtilis (ATCC 6633)
# Type: functional
Numbers only, in µg/mL.

[
  {
    "molecular_string": "O=Cc1cn(C2CC2)c2cc(N3CCNCC3)c(F)cc2c1=O",
    "MIC (µg/mL)": 6.25
  },
  {
    "molecular_string": "CCn1cc(C(=O)O)c(=O)c2cc(F)c(N3CCNCC3)cc21",
    "MIC (µg/mL)": 0.2
  },
  {
    "molecular_string": "CCn1cc(C=O)c(=O)c2cc(F)c(N3CCNCC3)cc21",
    "MIC (µg/mL)": 12.5
  }
]

Give MIC for the following molecule: CCn1cc(C=O)c(=O)c2cc(F)c(N3CCN(C)CC3)cc21
3.13

###

Record form. Attribute: MIC. Fill in for each entry.
# Tested on: Staphylococcus aureus
# assay_method_text: Inhibition of growth of Staphylococcus aureus (FDA207PJC-1) after incubation at 37 degree Centigrade
# Format: functional
# condition_notes: Staphylococcus aureus; read-out: MIC
Numbers only, in µg/mL.

Examples with their reported MIC follow.
[
  {
    "molecular_string": "CCn1cc(C(=O)O)c(=O)c2cc(F)c(N3CCNCC3)cc21",
    "reported_measurement": 0.2
  },
  {
    "molecular_string": "CCn1cc(C=O)c(=O)c2cc(F)c(N3CCN(C)CC3)cc21",
    "reported_measurement": 12.5
  },
  {
    "molecular_string": "O=Cc1cn(C2CC2)c2cc(N3CCNCC3)c(F)cc2c1=O",
    "reported_measurement": 25
  }
]

Under Staphylococcus aureus: report MIC of CCn1cc(C(=O)O)c(=O)c2cc(F)c(N3CCN(C)CC3)cc21 .
0.39
